target.or.system: Cytochrome P450 1A2 (Homo sapiens)
protocol.summary: Cytochrome panel assay with activity outcomes
assay.setup: recombinant CYP, pro-luciferin dealkylation, luminescence, p450-cyp1a2; series mostly up to 57.1 µM
The campaign covered roughly 16,000 compounds. About 5,700 (36%) were called active. Roughly 24% stayed inconclusive and do not appear here. The list shows a part of the results.
Overview of reported AC50 across a group of compounds:

The following compounds have reported results that may help.
> print(dat)
                                    mol            result
1     COc1ccccc1CNc1cc(-c2ccccc2OC)ncn1  2.51 µM (active)
2  CCCCOc1cc(C(=O)NCCN(CC)CC)c2ccccc2n1  5.01 µM (active)

Let us examine a further case.
Q: Fill in the blank: the reported AC50 of "O=c1c2ccccc2nc(-c2ccc(Br)cc2)n1Cc1ccccc1" is ____.
Ans: 10 µM (active)

###

target.or.system: Cytochrome P450 1A2 (Homo sapiens) (UniProt P05177)
Sequence (P05177 whole entry, looked up): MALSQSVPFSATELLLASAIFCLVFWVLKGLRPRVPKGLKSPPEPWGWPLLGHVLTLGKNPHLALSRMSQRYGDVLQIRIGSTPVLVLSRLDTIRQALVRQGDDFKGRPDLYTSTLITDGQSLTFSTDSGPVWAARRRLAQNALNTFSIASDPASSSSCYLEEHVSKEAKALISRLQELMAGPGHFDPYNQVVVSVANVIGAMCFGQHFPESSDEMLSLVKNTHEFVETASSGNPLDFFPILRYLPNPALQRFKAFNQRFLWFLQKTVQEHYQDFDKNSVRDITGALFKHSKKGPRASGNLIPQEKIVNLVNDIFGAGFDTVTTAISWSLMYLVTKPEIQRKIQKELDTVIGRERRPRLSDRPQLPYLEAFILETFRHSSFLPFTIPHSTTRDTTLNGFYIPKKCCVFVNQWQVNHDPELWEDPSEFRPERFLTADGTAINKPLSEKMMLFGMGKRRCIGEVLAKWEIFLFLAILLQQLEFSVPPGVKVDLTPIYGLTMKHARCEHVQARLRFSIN
protocol.summary: Cytochrome panel assay with activity outcomes
assay.setup: recombinant CYP, pro-luciferin dealkylation, luminescence, p450-cyp1a2; series mostly up to 57.1 µM
Screen size: about 16,000 compounds; about 5,700 (36%) were called active. Another 24% or so got no clear call; they are omitted. Calls follow the shape of the dose curve; as a rule, active = well fitted curve in the direction sought with a large enough effect; inconclusive = small, poorly fitted or top-dose-only effect, or effect the other way; inactive = no such curve, though single readings can be large or run the other way. Some of the results follow.
// allowed return values: class 1 for active, class 0 for inactive

> print(dat)
                                   compound    class
1  O=C(CN1CCCCC1)Nc1nnc(-c2ccc([N+](=O)[O-])cc2)s1  class 0
2  O=C(/C=C/c1cc2c(cc1Br)OCO2)NCc1ccc(Cl)cc1  class 1
3  Cc1ccc2c(c1)N(CC(=O)NC1CCC(C)CC1)C(=O)CO2 (configuration not stated)  class 0
4  C[C@H](NC(=O)c1ccc(Cl)c(Cl)c1)c1ccc(-c2ccccc2)cc1  class 1
5     COc1ccccc1CNc1nc(-c2cccnc2)nc2ccccc12  class 1

Q: What did the test return for "COc1ccc(CCNC(=O)CCN2C(=O)COc3ccc(C)cc32)cc1OC" ?
Ans: class 0

Q: Could you please tell me the result logged for "CCCCC(=O)Nc1nnc(SCC(=O)NC2CCCC2)s1" in this assay?
Ans: class 0
